System: HEK-293T
procedure-details: Multiplex assay against HEK293T
Format: toxicity, cell-based
measurement-setup: human, 24 h, 10 µM, compound concentration 10 uM, replicate 1
Rule: Population Fragmented Nuclei (%) under 10% gives Not fulfilled, otherwise Fulfilled.

>>> discrete_label("COc1ccc(S(=O)(=O)N(CCO)c2ccccc2CN(C)C/C=C/c2ccc(Cl)cc2)cc1.O=P(O)(O)O")
"Not fulfilled"
>>> discrete_label("CCCn1c(=O)c2[nH]c(-c3cnn(Cc4cccc(C(F)(F)F)c4)c3)nc2n(CC)c1=O")
"Fulfilled"
>>> discrete_label("C=C1/C(=C\\C=C2/CCC[C@]3(C)[C@@H]([C@H](C)/C=C/[C@H](C)C(C)C)CC[C@@H]23)C[C@@H](O)C[C@@H]1O")
"Fulfilled"
>>> discrete_label("O=C(Nc1ccc(-n2nc(-c3cccnc3)cc2C(F)(F)F)cn1)c1ccc(-c2ccccc2)c(F)c1")
"Fulfilled"
>>> discrete_label("CN1CCC(=C2c3ccccc3CC(=O)c3sccc32)CC1.O=C(O)/C=C/C(=O)O [KETOTIFEN FUMARATE]")
"Fulfilled"
>>> discrete_label("CCN1CCN(c2ccc(Nc3cc(N(C)C(=O)Nc4c(Cl)c(OC)cc(OC)c4Cl)ncn3)cc2)CC1")
"Fulfilled"

---

System: HEK-293T
procedure-details: Multiplex assay against HEK293T
Type: toxicity, cell-based
measurement-setup: human, 24 h, 1 µM, compound concentration 1 uM, replicate 1
Please assign Not satisfied whenever Population Mitotic Cells (%) is at or above 50%, and Satisfied whenever it is below.

>>> discrete_label("COc1cccc2cc(-c3nc([C@H]4CC[C@H](C(=O)O)CC4)n4ncnc(N)c34)[nH]c12 [OSI-027]")
"Not satisfied"
>>> discrete_label("CCNc1cc(N[C@H]2CC[C@H](O)CC2)nc(Nc2ccc3c(ccn3Cc3ccccc3)c2)n1")
"Not satisfied"
>>> discrete_label("CN1CCN(C(=O)C(C)(C)c2ccc(C(=O)Nc3cn4cc(-c5cc(C(C)(C)C)cc(C(C)(C)C)c5)ccc4n3)cc2)CC1 [T3-CLK-N]")
"Not satisfied"
>>> discrete_label("CCN1CCN(c2ccc(Nc3cc(N(C)C(=O)Nc4c(Cl)c(OC)cc(OC)c4Cl)ncn3)cc2)CC1 [INFIGRATINIB]")
"Not satisfied"
>>> discrete_label("Cn1nc(C(F)(F)F)cc1-c1cnc(N2CCc3cc(S(=O)(=O)Nc4c(F)cc(Cl)cc4F)cc(N4CCCC4=O)c32)nc1 [TP-020]")
"Not satisfied"
>>> discrete_label("CCc1cccc(CC)c1NC(=O)c1nn(C)c2c1CCc1cnc(Nc3ccc(N4CCN(C)CC4)cc3OC)nc1-2")
"Not satisfied"
>>> discrete_label("O=C(Nc1ccc(-n2nc(-c3cccnc3)cc2C(F)(F)F)cn1)c1ccc(-c2ccccc2)c(F)c1 [BI 2049]")
"Satisfied"
>>> discrete_label("CCCS(=O)(=O)Nc1ccc(F)c(C(=O)c2c[nH]c3ncc(Cl)cc23)c1F [PLX-4720]")
"Not satisfied"
>>> discrete_label("CCOc1cc2ncc(C#N)c(Nc3ccc(OCc4ccccn4)c(Cl)c3)c2cc1NC(=O)/C=C/CN(C)C [NERATINIB]")
"Satisfied"
>>> discrete_label("S=C(NCCCc1c[nH]cn1)NCCCN(Cc1ccc(Cl)c(Cl)c1)c1ccc(Br)cn1")
"Satisfied"
>>> discrete_label("CCCn1c(=O)c2[nH]c(-c3cnn(Cc4cccc(C(F)(F)F)c4)c3)nc2n(CC)c1=O [GS 6201]")
"Satisfied"
>>> discrete_label("Cl.O=c1c2cccn2c2ccccc2n1CCCN1CCC(c2ccc(Cl)cc2)CC1")
"Satisfied"
>>> discrete_label("Cc1cc(C)c(S(=O)(=O)N(Cc2ccc(-c3cccc(S(C)(=O)=O)c3)cc2)Cc2ccc(C(F)(F)F)o2)c(C)c1")
"Not satisfied"
